Reference for the values: paper PMC9482650

target: LNX1_3, Q8TBB1; assay: holdup assay; set-up: key: below the threshold = too weak to quantify, mostly under pKd 3.1 to 4; settings: plain residues with an end cap or a label only (N-terminal biotin on a linker: ado-ado)
Sequence (Q8TBB1 500-596): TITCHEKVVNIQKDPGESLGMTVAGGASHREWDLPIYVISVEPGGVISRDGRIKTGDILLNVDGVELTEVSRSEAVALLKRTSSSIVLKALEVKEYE
recorded-endpoint: pKd

LPAVCYDIDI [PTTG2, Q9NZH5] ... below the threshold
NVYGIESVKI [GRIA2, P42262] ... below the threshold
GEDRSPPTAL [MKNK1, Q9BUB5] ... below the threshold
PSHPRLQTHV [KIRREL2, Q6UWL6] ... below the threshold
